Quick reference for fold repression among some binders
# target.desc: T1, ECF14_1324
# T1 chain: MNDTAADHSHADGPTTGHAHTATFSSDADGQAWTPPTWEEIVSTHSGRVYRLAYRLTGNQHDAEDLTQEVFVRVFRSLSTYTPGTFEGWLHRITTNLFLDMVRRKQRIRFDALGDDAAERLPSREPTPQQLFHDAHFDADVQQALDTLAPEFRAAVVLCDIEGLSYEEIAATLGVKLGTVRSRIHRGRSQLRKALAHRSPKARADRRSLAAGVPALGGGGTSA
The answer should be written as a number, with no unit following it.

| binder | fold repression |
| --- | --- |
| AS01_3473 (protein) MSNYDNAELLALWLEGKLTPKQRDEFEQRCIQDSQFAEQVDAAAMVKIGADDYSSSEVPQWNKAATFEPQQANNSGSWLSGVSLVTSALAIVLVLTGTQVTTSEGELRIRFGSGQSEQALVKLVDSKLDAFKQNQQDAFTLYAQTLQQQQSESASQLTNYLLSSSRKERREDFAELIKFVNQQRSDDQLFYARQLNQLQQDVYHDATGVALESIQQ | 2.61 |

Ask: Quick one: give measured fold repression for AS25_1643_cl43 (protein) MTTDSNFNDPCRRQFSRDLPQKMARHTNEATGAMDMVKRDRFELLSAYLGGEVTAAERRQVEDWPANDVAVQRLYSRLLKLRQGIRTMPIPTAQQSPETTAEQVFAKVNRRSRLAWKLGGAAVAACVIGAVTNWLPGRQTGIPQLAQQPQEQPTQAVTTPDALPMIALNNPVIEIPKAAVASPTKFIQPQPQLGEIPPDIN
Result: 1.77

Ask: Quick one: give measured fold repression for AS14_1324 (protein) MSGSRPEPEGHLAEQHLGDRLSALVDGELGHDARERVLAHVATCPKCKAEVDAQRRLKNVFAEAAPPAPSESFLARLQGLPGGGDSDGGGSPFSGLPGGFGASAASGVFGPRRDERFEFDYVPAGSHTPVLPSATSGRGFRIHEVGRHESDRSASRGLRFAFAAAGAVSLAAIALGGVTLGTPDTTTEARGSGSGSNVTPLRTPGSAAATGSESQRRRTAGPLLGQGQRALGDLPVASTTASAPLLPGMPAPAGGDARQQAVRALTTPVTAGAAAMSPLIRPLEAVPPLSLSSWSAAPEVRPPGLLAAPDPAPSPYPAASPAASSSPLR
Result: 47.4

Ask: Quick one: give measured fold repression for AS04_1609 (protein) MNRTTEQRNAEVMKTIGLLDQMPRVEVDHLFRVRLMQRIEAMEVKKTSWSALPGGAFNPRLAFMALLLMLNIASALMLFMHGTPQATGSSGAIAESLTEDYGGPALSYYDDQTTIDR
Result: 8.02

Ask: Quick one: give measured fold repression for AS27_4265 (protein) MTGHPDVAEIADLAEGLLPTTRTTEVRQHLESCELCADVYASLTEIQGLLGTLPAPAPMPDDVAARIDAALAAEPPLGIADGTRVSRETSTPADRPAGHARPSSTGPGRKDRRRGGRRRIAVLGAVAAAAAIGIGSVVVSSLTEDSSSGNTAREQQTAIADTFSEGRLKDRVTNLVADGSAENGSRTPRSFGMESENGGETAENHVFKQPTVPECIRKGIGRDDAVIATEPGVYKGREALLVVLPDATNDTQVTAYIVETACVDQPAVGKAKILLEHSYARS
Result: 3.08

Ask: Quick one: give measured fold repression for AS20_992 (protein) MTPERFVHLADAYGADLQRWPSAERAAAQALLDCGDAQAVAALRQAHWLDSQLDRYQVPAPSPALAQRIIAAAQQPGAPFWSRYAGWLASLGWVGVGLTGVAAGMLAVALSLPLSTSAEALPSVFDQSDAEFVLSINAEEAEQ
Result: 1.64

Ask: Quick one: give measured fold repression for AS33_375 (protein) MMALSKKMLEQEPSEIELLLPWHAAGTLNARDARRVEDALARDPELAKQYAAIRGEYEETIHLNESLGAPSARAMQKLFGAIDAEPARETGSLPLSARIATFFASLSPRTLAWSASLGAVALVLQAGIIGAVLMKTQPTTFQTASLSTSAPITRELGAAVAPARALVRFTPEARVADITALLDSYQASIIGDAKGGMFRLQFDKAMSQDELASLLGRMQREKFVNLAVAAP
Result: 44.6

Ask: Quick one: give measured fold repression for AS22_4450 (protein) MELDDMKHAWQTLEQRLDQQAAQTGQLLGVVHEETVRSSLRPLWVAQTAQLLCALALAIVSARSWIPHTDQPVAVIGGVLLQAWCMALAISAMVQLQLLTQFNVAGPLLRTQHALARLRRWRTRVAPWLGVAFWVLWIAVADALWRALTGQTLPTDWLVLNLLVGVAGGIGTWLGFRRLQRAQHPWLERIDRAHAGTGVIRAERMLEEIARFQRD
Result: 2.85

Ask: Quick one: give measured fold repression for AS37_2513 (protein) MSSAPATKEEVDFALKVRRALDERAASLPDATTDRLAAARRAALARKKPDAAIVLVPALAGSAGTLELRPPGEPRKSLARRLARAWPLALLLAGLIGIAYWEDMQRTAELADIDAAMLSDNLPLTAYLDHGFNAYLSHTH
Result: 13.8
